Entry source: paper PMC4424558

- System: Enterobacter aerogenes ATCC13048
- procedure_text: Broth microdilution MIC/MBC against Enterobacter aerogenes ATCC13048
- Format: cell-based
- setup_conditions: Klebsiella aerogenes
metric_name: MBC (mg/L)
Answer format: numeric, mg/L implied, no suffix.

IN: State, in one line, measured MBC of "C[C@@H]1O[C@@H](OC[C@H]2O[C@@H](Oc3c(-c4ccc(O)c(O)c4)oc4cc(O)cc(O)c4c3=O)[C@H](O)[C@@H](O)[C@@H]2O)[C@H](O)[C@H](O)[C@H]1O"
OUT: 32

IN: Read the entry O=C(N[C@H](CO)[C@H](O)c1ccc([N+](=O)[O-])cc1)C(Cl)Cl [chloramphenicol, Chloramphenicol, reference compound] and write its reported MBC.
OUT: 64

IN: Please report MBC for the following compound: O=C(O)[C@H]1O[C@@H](Oc2cc(O)c3c(=O)cc(-c4ccc(O)cc4)oc3c2)[C@H](O)[C@@H](O)[C@@H]1O [Compound 3, apigenin-7-O-β-D-glucuronopyranoside]
OUT: 128

IN: Tell me measured MBC for "O=c1c(O)c(-c2ccc(O)c(O)c2)oc2cc(O)cc(O)c12" please.
OUT: 64

IN: Report MBC for O=c1c(O[C@@H]2O[C@H](CO)[C@H](O)[C@H](O)[C@H]2O)c(-c2ccc(O)c(O)c2)oc2cc(O)cc(O)c12 [Compound 4, quercetin 3-O-β-D-galactopyranoside]
OUT: 64

---

- System: Cryptococcus neoformans IP 90526
- procedure_text: Broth microdilution MIC/MFC against Cryptococcus neoformans IP 90526
- Type: cell-based
- setup_conditions: IP90526, 37°C, 48 h, read-out: MIC
MIC reference
Only the number, expressed in µg/mL, is required.

| compound | MIC / µg/mL |
| --- | --- |
| O=c1c(O[C@@H]2O[C@H](CO)[C@H](O)[C@H](O)[C@H]2O)c(-c2ccc(O)c(O)c2)oc2cc(O)cc(O)c12 [Compound 4, quercetin 3-O-β-D-galactopyranoside] | 128 |
| O=c1c(O)c(-c2ccc(O)c(O)c2)oc2cc(O)cc(O)c12 [Compound 2, quercetin] | 64 |

Let us move to another entry and its MIC.
IN: State its MIC for this compound: O=C(O)[C@H]1O[C@@H](Oc2cc(O)c3c(=O)cc(-c4ccc(O)cc4)oc3c2)[C@H](O)[C@@H](O)[C@@H]1O [Compound 3, apigenin-7-O-β-D-glucuronopyranoside]
OUT: 128
